Each entry below carries its reported IC50.
# test_system: UniProtKB Q14432
# Sequence (Q14432 whole entry): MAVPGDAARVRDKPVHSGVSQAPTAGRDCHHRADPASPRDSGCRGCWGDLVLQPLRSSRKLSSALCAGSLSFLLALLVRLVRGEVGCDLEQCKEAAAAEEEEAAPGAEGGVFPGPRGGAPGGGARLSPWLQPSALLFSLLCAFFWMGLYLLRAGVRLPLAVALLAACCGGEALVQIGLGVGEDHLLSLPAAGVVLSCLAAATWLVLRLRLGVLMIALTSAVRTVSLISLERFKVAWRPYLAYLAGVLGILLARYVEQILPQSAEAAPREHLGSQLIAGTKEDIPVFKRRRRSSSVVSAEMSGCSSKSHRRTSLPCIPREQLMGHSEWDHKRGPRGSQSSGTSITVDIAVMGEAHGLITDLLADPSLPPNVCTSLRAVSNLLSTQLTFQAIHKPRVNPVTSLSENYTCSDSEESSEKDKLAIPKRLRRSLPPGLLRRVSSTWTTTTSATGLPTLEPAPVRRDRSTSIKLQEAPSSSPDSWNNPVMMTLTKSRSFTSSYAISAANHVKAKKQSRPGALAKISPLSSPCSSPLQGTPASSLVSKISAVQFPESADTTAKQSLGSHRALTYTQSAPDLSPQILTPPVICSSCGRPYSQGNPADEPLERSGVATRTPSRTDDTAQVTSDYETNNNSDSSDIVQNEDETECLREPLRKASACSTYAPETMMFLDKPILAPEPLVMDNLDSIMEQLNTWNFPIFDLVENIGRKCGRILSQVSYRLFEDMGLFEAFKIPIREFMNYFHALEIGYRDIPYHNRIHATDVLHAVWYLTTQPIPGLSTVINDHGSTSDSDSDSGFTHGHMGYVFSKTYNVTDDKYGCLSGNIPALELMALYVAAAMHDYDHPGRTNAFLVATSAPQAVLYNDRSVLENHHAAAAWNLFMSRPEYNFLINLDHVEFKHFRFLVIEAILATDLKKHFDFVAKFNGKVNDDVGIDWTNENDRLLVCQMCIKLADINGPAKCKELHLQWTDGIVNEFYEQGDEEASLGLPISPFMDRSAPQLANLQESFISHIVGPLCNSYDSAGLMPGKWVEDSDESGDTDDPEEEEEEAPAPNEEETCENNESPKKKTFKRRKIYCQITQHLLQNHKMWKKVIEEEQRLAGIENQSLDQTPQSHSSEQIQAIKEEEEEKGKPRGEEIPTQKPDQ
reported_endpoint: IC50

>>> print(df.to_string())
                                   compound    result
0  CC(C)(C)c1cc(Cc2nc3cccc(C#Cc4ccccn4)c3o2)cc(C(C)(C)C)c1O  > 300 µM
1  CC(C)(C)c1cc(Cc2nc3cc(Cl)cc(C#Cc4nccs4)c3o2)cc(C(C)(C)C)c1O  > 300 µM
2  CC(C)(C)c1cc(Cc2nc3cc(Cl)cc(C#Cc4ccccn4)c3o2)cc(C(C)(C)C)c1O  > 300 µM
3  COc1ccc(C2CNC(=O)C2)cc1OC1CCCC1 (stereo not shown) [Rolipram, reference compound]    620 µM

###

Record: IC50 reported on UniProtKB O76074.
reported_endpoint: IC50 (µM)

>>> df
                                   molecule  comparison_operator  recorded_number
0  CC(C)(C)c1cc(Cc2nc3cccc(C#Cc4ccccn4)c3o2)cc(C(C)(C)C)c1O                    =             35.1
1  CC(C)(C)c1cc(Cc2nc3cc(Cl)cc(C#Cc4nccs4)c3o2)cc(C(C)(C)C)c1O                    >              300
